- PROTOCOL_SUMMARY: Food effect study Part 2, single 500 mg dose fed vs fasted
- Assay type: in vivo, human
- RUN_PARAMETERS: LYT-100 @500 mg, 5-CO2 metabolite
METRIC: Tmax, Fasted (min)
Answer format: numeric, min implied, no suffix.

Asked: Which Tmax, Fasted is listed for O=C(O)c1ccc(=O)n(-c2ccccc2)c1 ?
Given back: 45

====

- PROTOCOL_SUMMARY: Food effect study Part 2, single 500 mg dose fed vs fasted
- Format: in vivo, human
- RUN_PARAMETERS: human, plasma, oral, 500 mg, LYT-100 @500 mg single dose; analyte = label; read-out: AUC, Fed
METRIC: AUC (ng·h/mL)
Unit ng·h/mL implied. Number only.

Asked: I would be grateful if you could share the reported AUC for [2H]C([2H])([2H])c1ccc(=O)n(-c2ccccc2)c1 .
Given back: 49500

====

- PROTOCOL_SUMMARY: Food effect study Part 2, single 500 mg dose fed vs fasted
- Format: in vivo, human
- RUN_PARAMETERS: human, plasma, oral, 500 mg, LYT-100 @500 mg single dose; analyte = label; read-out: AUC, Fasted
METRIC: AUC
Include the unit right after the number.

Asked: # get_value(readout='AUC', item= [2H]C([2H])([2H])c1ccc(=O)n(-c2ccccc2)c1 [LYT-100, 5-(methyl-d3)-1-phenylpyridin-2-(1H)-one] )
Given back: 60900 ng·h/mL

====

- PROTOCOL_SUMMARY: Food effect study Part 2, single 500 mg dose fed vs fasted
- Assay type: in vivo, human
- RUN_PARAMETERS: human, plasma, oral, 500 mg, LYT-100 @500 mg single dose; analyte = label; read-out: Cmax, Fed
METRIC: Cmax (ng/mL)
Please state the figure in ng/mL; there is no need to write the unit.

Asked: Would you mind telling me what Cmax value was observed for [2H]C([2H])([2H])c1ccc(=O)n(-c2ccccc2)c1 ?
Given back: 7900

====

- PROTOCOL_SUMMARY: Food effect study Part 2, single 500 mg dose fed vs fasted
- Type: in vivo, human
- RUN_PARAMETERS: LYT-100 @500 mg, 5-CO2 metabolite
METRIC: Tmax, Fed (h)
# output: bare number, implied unit h

Asked: What does the record list as Tmax, Fed for O=C(O)c1ccc(=O)n(-c2ccccc2)c1 ?
Given back: 1
